This collection of values is drawn from patent US7264811B2.

- Measurement Target: NS2/3 protease (Hepatitis C virus genotype 1b, UniProt P26663)
- Construct: In a well defined assay system using purified NS2/3 (904-1206) and an optimized cleavage buffer
- Assay Method Text: biochemical
Where a SMILES comes first, the peptide text is derived from it.
Property: IC50 (µM)
Report the figure in µM without appending any unit label.

Some compounds with known IC50 results, for comparison:
INSERT INTO results (compound, measurement_target, property, readout_units, readout_number) VALUES
  ('CC[C@H](C)[C@H](NC(=O)[C@@H]1CCCN1C(=O)[C@H](C)N)C(=O)N[C@H](C(=O)N[C@@H](C)C(=O)N[C@@H](Cc1ccc(O)cc1)C(=O)O)[C@@H](C)O [Peptide 5, APITAY] (H-APITAY-OH)', 'NS2/3 protease (Hepatitis C virus genotype 1b, UniProt P26663)', 'IC50', 'µM', 1000),
  ('CC(C)C[C@H](NC(=O)[C@H](CC(C)C)NC(=O)[C@H](CCCNC(=N)N)NC(=O)[C@H](Cc1c[nH]c2ccccc12)NC(=O)CNC(=O)[C@H](CCC(N)=O)NC(=O)CNC(=O)[C@H](CCC(=O)O)NC(=O)[C@H](Cc1ccccc1)NC(=O)[C@@H](N)CO)C(=O)O [Peptide 2, SFEGQGWRLL] (H-SFEGQGWRLL-OH; N-terminus and C-terminus assumed)', 'NS2/3 protease (Hepatitis C virus genotype 1b, UniProt P26663)', 'IC50', 'µM', 90);

// switching to the query compound
Query: Fill blank: measured IC50 of the compound CC[C@H](C)[C@H](NC(=O)[C@@H]1CCCN1C(=O)[C@H](C)NC(=O)[C@H](CC(C)C)NC(=O)[C@H](CC(C)C)NC(=O)[C@H](CCCNC(=N)N)NC(=O)[C@H](Cc1c[nH]c2ccccc12)NC(=O)CNC(=O)[C@@H](N)CCCCN)C(=O)N[C@H](C(=O)N[C@@H](C)C(=O)N[C@@H](Cc1ccc(O)cc1)C(=O)O)[C@@H](C)O [Peptide 4, KGWRLL-APITAY] is ____.
Reply: 630
